These data points were gathered from PubChem BioAssay (NCI).

# System: SN12C renal
# test: NCI tumour cell line growth inhibition, 48 h
Some molecules, each annotated with its measured TGI.
measured-metric: TGI

molecule | result
Oc1cccc2c(Cl)ccnc12 | > 55.2 µM
O=C(CC1(O)C(=O)Nc2c(Cl)cc(Cl)cc21)c1ccc(Br)cc1Br (configuration not stated) | 28.5 µM
O=C(CCC(=O)c1ccc(Cl)cc1)NO | > 100 µM
COc1cc(/C=C2\S/C(=N/Nc3nc(-c4ccc(Br)cc4)cs3)NC2=O)cc(OC)c1OC | > 100 µM
COc1nc(N)c(C(=O)CCl)c(=O)n1C | 45.2 µM
[N-]=[N+]=Nc1cc(=O)oc2ccccc12 | > 100 µM
CC1(C)N=C(/C(Cl)=[N+](/[O-])C(=O)c2ccc(F)cc2)C(C)(C)N1O | 29.2 µM
Cn1c2ccccc2c2c(Nc3ccccc3)c3ccccc3nc21 | 47.3 µM
c1ccc2cc(-c3cc(-c4cc(-c5ccc6ccccc6c5)on4)no3)ccc2c1 | > 100 µM
Cn1cc(C2=C(c3cn(C)c4ncccc34)C(=O)NC2=O)c2ccccc21 | > 25 µM
CC(C)CCCCCCCCCCCCC(=O)NCC(=O)NC1C(C)OC(Nc2ncnc3c2ncn3C)C(O)C1O (configuration not stated) | > 100 µM
N#CCCN(CCC#N)c1ccc(/C=C2\N=C(c3cc([N+](=O)[O-])ccc3Cl)OC2=O)cc1 | 37.8 µM
O=C1/C(=C/c2ccc(O)cc2)CC/C1=C\c1ccc(O)cc1 | > 100 µM
CCC12C=CCN3CCC4(C(=C(C(=O)OC)[C@@H]1O)Nc1ccccc14)C32 (some centres not stated) | 5.71 µM
CNC(=O)OCC1=C(COC(=O)NC)C(C)N(c2ccc(OC)cc2)C1 (configuration not stated) | > 100 µM
O=C(O)CN(CC(=O)O)C1CCCCC1N(CC(=O)O)CC(=O)NCCN=C=S (configuration not stated) | > 100 µM
NC(=O)c1cccc2cn(-c3ccc([C@@H]4CCCNC4)cc3)nc12 | 56.8 µM
Oc1cc2c3c(c1)c1cc4c(cc1c[n+]3CC2)OCO4 | 5.71 µM
CCCCCCCCCCCCCCCCCC(CCCCCCCCCCCCCCCCC)OP(=O)(O)O | > 100 µM
CC1=C(C)[C@@]2(C)O[C@@]2(C)O[C@@]2(C)O[C@@]12C | > 100 µM
COC(=O)C1CCC(=O)N1C(c1ccccc1)c1ccc(OC)c(OC)c1 (configuration not stated) | > 100 µM
CCOC(=O)C1=C(C)NC(=S)NC1c1ccccc1 (configuration not stated) | > 100 µM

----------
Some compounds, each annotated with its measured TGI.
# Test system: LXFL 529 NSCLC
# test: NCI tumour cell line growth inhibition, 48 h

compound | study-system | units-symbol | bound-type | TGI
Cc1cc(C)nc(NS(=O)(=O)c2ccc(NC(=O)c3ccc(Cl)c4c(Nc5ccc(S(=O)(=O)Nc6nc(C)cc(C)n6)cc5)c5ccccc5nc34)cc2)n1 | LXFL 529 NSCLC | µM | = | 61.2
O=C1C(=O)N(c2ccc(Cl)cc2Cl)C(=O)C(=O)C1c1nc2ccccc2s1 | LXFL 529 NSCLC | µM | > | 100
CC1=C(C(=O)NCc2ccccc2)C(/C=C/c2ccccc2)C(C(=O)NCc2ccccc2)=C(C)N1 | LXFL 529 NSCLC | µM | > | 100
O=CC[C@H]1C(=O)C[C@@H]2CCC[C@@H]21 | LXFL 529 NSCLC | µM | > | 100
O=CN/C=C/c1cc(O)ccc1O | LXFL 529 NSCLC | µM | = | 23.9
COc1ccccc1C12OC(=O)C1(C)Oc1ccccc1C2=O (stereo not given) | LXFL 529 NSCLC | µM | > | 100
COc1nc(N)c(C(=O)CCl)c(=O)n1C | LXFL 529 NSCLC | µM | = | 27.1
Cc1ccc(N=Nc2ccc(N(CCC#N)CCC#N)cc2C)c(Br)c1 | LXFL 529 NSCLC | µM | > | 100
CC(=O)NNc1nc(C)c(C(=O)NNC(=O)C(=O)Nc2ccc(Cl)cc2)s1 | LXFL 529 NSCLC | µM | > | 100
N#CCCN(CCC#N)c1ccc(/C=C2\N=C(c3cc([N+](=O)[O-])ccc3Cl)OC2=O)cc1 | LXFL 529 NSCLC | µM | = | 49.3

----------
# System: M19-MEL melanoma
# test: NCI tumour cell line growth inhibition, 48 h
Some molecules, each annotated with its measured TGI.

molecule | TGI
CCC12C=CCN3CCC4(C(=C(C(=O)OC)[C@@H]1O)Nc1ccccc14)C32 (stereo partly drawn) | 3.61 µM
COC(CN1C(=O)c2cccc3cccc(c23)C1=O)OC | > 100 µM
COC1CCC2C(NS(=O)(=O)c3ccc(C)cc3)CCCC2O1 (stereo not drawn) (tested in a mixture with another compound) | > 34.5 µM
CC(=O)NC1=C(NCCC(C)C)C(=O)c2ccccc2C1=O | > 50 µM
Cc1nc2ccccc2c(=O)n1-c1ccccc1I | > 100 µM
C/C(CC(=O)CCC(=O)Nc1cccc(C(F)(F)F)c1)=N\NC(=O)NN | > 100 µM
CCCCCCCCCCCCCCCCCC(CCCCCCCCCCCCCCCCC)OP(=O)(O)O | > 100 µM
CC1(c2ccc(F)cc2)C(C#N)C(=O)NC(=O)C1C#N (stereo not drawn) | > 100 µM

----------
# System: SK-MEL-28 melanoma
# test: NCI tumour cell line growth inhibition, 48 h

molecule | TGI
CNS(=O)(=O)NNS(=O)(=O)c1ccc2ccccc2c1 | > 100 µM
O=S1(=O)NC(=NCc2c[nH]c3ccccc23)N(c2ccccc2)c2ccncc21 | > 100 µM
CCCCOC(=O)C1OC(O[C@H]2CCC3(C)C(CCC4(C)C3CC=C3C5CC(C)(C)CCC5(C(=O)O)CC[C@]34C)C2(C)C)C(OC2OC(CO)C(O)C(O)C2O)C(OC2OC(CO)C(O)C(O)C2O)C1O (stereo not given in full) | 52.2 µM
O=C1C(Cl)=C(Nc2cccc(Cl)c2)C(=O)N1Cc1ccc(Cl)cc1Cl | 14.2 µM
O=C(COc1ccc(Br)cc1Br)N1N=C(c2ccc([N+](=O)[O-])o2)CC1(O)c1ccccc1 (stereo not given) | 28 µM
O=C(Nc1ccccc1)NS(=O)(=O)c1ccc(-n2nc3c(c2-c2cccs2)Cc2ccccc2-3)cc1 | > 100 µM
Cc1ccc2c(=O)cc(-c3ccc(F)cc3)[nH]c2n1 | > 100 µM
CC1(C)CCc2c(c3c(c4c(=O)c(O)c(-c5ccc(O)cc5)oc24)OC(C)(C)CC3)O1 | > 100 µM
CN1C(=O)C(C)(C)C2(SC(C)(C)C2(C)C)N(C)C1=S (stereo not given) | > 100 µM
O=C(/C=C/c1ccccc1)NC1C=Nc2ccc(Cl)cc2NC1=O (stereo not given) | > 100 µM
O=C(O)c1cccc2c1/C(=N/Nc1ccccc1)CC2 | > 100 µM
C[C@]12CC[C@H](O)CC1=CC[C@@H]1C2CC[C@]2(C)C(=O)N(N)C(=O)CC12 (stereo not given in full) | > 100 µM
Brc1ccc(N=c2nc3ccccn3n3nc(-c4ccccc4)cc23)cc1 | > 100 µM
CCOC(=O)CN1C(=O)c2cccc3cc([N+](=O)[O-])cc(c23)C1=O | 7.39 µM
CCOc1cc2c(cc1O)/C(=N\OC)C[C@@H]1[C@@H]2CC[C@]2(C)[C@@H](O)CC[C@@H]12 | > 60.2 µM
O=C(O)CCc1coc2ccc(O)cc12 | > 100 µM
CC(C)C1/C(=N/O)CC(c2ccccc2)N(N=O)C1c1ccccc1 (stereo not given) | > 100 µM
O=C(Nc1ccc(C2=NCCN2)cc1)c1cncc(C(=O)Nc2ccc(C3=NCCN3)cc2)c1 | > 31.6 µM
NC(=O)C(c1ccccc1)N1OC2C(=O)N(c3ccccc3)C(=O)C2C1c1c2ccccc2c(Cl)c2ccccc12 (stereo not given) | > 100 µM
N#CC1=C(N)N(c2ccccc2)C(c2ccco2)C1(C#N)C#N (stereo not given) | 38.9 µM

----------
Some compounds, each annotated with its measured TGI.
# System: HOP-62 NSCLC
# test: NCI tumour cell line growth inhibition, 48 h
measured-metric: TGI

compound | result
CC1(C)CCc2c(c3c(c4c(=O)c(O)c(-c5ccc(O)cc5)oc24)OC(C)(C)CC3)O1 | 54.7 µM
CC(C)C1/C(=N/O)CC(c2ccccc2)N(N=O)C1c1ccccc1 (stereo not given) | > 100 µM
CC1=C(C(=O)Nc2ccc(Cl)c(Cl)c2)C(c2cccc(Oc3ccccc3)c2)NC(=S)N1 (stereo not given) | 24.2 µM
FC(F)(F)c1cc(Cl)cnc1N/N=C(/c1ccccc1)c1ccccn1 | 19.7 µM
O=S1(=O)NC(=NCc2c[nH]c3ccccc23)N(c2ccccc2)c2ccncc21 | > 100 µM
CCc1ccc(CCN2CCCCC2)nc1 | > 100 µM
C=C(CN1CCN(c2ccc(Cl)cc2F)CC1)c1ccc(C(=O)Nc2ccccc2N)cc1 | 27.8 µM
Cc1nc2ccccc2c(N)c1-c1cc(C)c2c(C)nc3ccccc3c2n1 | 3.36 µM
CC(=O)Nc1ccc(-c2nnc(SCC(=O)Nc3ccc([N+](=O)[O-])cc3)o2)cc1 | 53.4 µM
CCCCOC(=O)C1OC(O[C@H]2CCC3(C)C(CCC4(C)C3CC=C3C5CC(C)(C)CCC5(C(=O)O)CC[C@]34C)C2(C)C)C(OC2OC(CO)C(O)C(O)C2O)C(OC2OC(CO)C(O)C(O)C2O)C1O (stereo not given in full) | 35.6 µM
O=C(Nc1ccc(C2=NCCN2)cc1)c1cncc(C(=O)Nc2ccc(C3=NCCN3)cc2)c1 | > 100 µM
O=C(O)CN(CC(=O)O)C1CCCCC1N(CC(=O)O)CC(=O)NCCN=C=S (stereo not given) | > 100 µM
CCNC(=S)N/N=C/c1cc([N+](=O)[O-])ccc1O | > 100 µM
CC1=C(C(=O)NCc2ccccc2)C(/C=C/c2ccccc2)C(C(=O)NCc2ccccc2)=C(C)N1 | > 100 µM
Oc1cc2c3c(c1)c1cc4c(cc1c[n+]3CC2)OCO4 | > 100 µM
O=c1[nH]cc(N=Cc2cc(Cl)cc(Cl)c2O)c(=O)[nH]1 | 57 µM
CN1C(=O)C(C)(C)C2(SC(C)(C)C2(C)C)N(C)C1=S (stereo not given) | > 100 µM
CC[C@@]1(C[C@H]2C[C@@]3(C(=O)OC)c4[nH]c5ccccc5c4CCN3C2=O)COC2(CCCCC2)O1 | > 100 µM
COC(=O)CC1CCN(C#N)CC1CC[N+](=O)[O-] (stereo not given) | > 100 µM
O=CN/C=C/c1cc(O)ccc1O | > 100 µM
